Molecular target: T1, HCoV-OC43 nucleocapsid (N) protein, 2X-StrepTag tagged (HCoV-OC43, UniProt P33469 1-448)
T1 sequence: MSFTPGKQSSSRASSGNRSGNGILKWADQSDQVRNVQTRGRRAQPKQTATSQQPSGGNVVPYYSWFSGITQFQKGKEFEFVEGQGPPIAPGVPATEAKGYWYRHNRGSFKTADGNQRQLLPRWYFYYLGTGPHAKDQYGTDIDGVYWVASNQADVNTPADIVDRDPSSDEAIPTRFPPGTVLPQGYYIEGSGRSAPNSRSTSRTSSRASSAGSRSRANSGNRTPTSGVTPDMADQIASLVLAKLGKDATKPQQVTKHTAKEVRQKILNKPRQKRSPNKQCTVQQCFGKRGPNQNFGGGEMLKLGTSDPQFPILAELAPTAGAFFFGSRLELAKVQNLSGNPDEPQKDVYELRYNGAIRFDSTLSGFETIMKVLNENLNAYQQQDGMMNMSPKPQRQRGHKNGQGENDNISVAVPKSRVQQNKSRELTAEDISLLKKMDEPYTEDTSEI
Test: BLI
Consider the reported kon of an entry and match it to a band in lower range (below 10000 M⁻¹ s⁻¹), middle range (10000 M⁻¹ s⁻¹ to below 60000 M⁻¹ s⁻¹), upper range (60000 M⁻¹ s⁻¹ or more)

Exercise: read the entry CCL25 (ligand) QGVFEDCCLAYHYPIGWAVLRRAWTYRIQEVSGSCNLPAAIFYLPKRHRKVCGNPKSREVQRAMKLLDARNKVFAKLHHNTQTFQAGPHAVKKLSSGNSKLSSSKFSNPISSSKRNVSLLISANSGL and state which class it falls under.
lower range

Determine which band this binder sits in: CXCL11 (ligand) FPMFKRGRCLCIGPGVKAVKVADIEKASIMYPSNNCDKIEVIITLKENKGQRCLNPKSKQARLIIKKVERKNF
middle range

Consider CXCL9 (ligand) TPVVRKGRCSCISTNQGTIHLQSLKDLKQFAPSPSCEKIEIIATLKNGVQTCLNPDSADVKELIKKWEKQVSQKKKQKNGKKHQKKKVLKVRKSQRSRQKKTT . To which kon class does it belong?
upper range

Dear colleague, I would appreciate it if you could identify the bin for CCL5 (ligand) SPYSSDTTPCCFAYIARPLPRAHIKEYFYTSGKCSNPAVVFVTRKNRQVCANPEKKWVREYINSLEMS and reply at your convenience.
lower range

Exercise: read the entry CCL26 (ligand) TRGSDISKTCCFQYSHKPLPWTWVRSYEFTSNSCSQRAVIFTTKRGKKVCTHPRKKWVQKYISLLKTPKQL and state which class it falls under.
middle range

The measured values listed here are drawn from paper PMC10334784.
